These entries and their values trace back to ChEMBL document CHEMBL1687922.

- assay.explanation: Stability of the compound assessed as conversion of prodrug to 3-[(2R,4S, 5R)-4-hydroxy-5-(hydroxymethyl)oxolan-2-yl]-6-(4-pentylphenyl)furo[2, 3-d]pyrimidin-2-one in presence of Dipeptidyl-peptidase 4 and 20 % bovine serum
- Type: physicochemical
- condition.set: cattle

# compound.structure.string, Activity
data = [
    ("CCCCCc1ccc(-c2cc3cn([C@H]4C[C@H](O)[C@@H](COC(=O)[C@H](CC(C)C)NC(=O)[C@@H]5CCCN5C(=O)[C@@H](N)C(C)C)O4)c(=O)nc3o2)cc1", "Active"),
    ("CCCCCc1ccc(-c2cc3cn([C@H]4C[C@H](O)[C@@H](COC(=O)[C@H](C)NC(=O)[C@@H]5CCCN5C(=O)[C@@H](N)C(C)C)O4)c(=O)nc3o2)cc1", "Active"),
    ("CCCCCc1ccc(-c2cc3cn([C@H]4C[C@H](O)[C@@H](COC(=O)[C@H](Cc5ccccc5)NC(=O)[C@@H]5CCCN5C(=O)[C@@H](N)C(C)C)O4)c(=O)nc3o2)cc1", "Active"),
]
